All figures here come from the Human Domainome abundance scans (Beltran et al. 2025).

B1: POU domain, class 2, transcription factor 2, residues 200 to 269; numbered along this chain, P09086 (parent)
chain: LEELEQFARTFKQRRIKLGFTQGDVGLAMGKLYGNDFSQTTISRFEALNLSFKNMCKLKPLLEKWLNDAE

# Variants of: B1
# protocol summary: abundance fitness (aPCA) (normalised: wild type 0, dead -1); higher = more abundant; growth selection in yeast, the domain comes from the species named
# condition set: Homo sapiens
measurement label: abundance fitness
Reply: number alone, nothing else.

LEELEQFARTFKQRRIKLGFTQRDVGLAMGKLYGNDFSQTTISRFEALNLSFKNMCKLKPLLEKWLNDAE [G23R] | -0.004
LEELEQFARTFKQRRIKLGFTQGDVGLAMGKGYGNDFSQTTISRFEALNLSFKNMCKLKPLLEKWLNDAE [L32G] | -0.08
LEELEQFARTFKQRWIKLGFTQGDVGLAMGKLYGNDFSQTTISRFEALNLSFKNMCKLKPLLEKWLNDAE [R15W] | -0.913
LEEEEQFARTFKQRRIKLGFTQGDVGLAMGKLYGNDFSQTTISRFEALNLSFKNMCKLKPLLEKWLNDAE [L4E] | -0.523
LEELEQFARTFKQRRIKLGFTQGDVGLAMGKLMGNDFSQTTISRFEALNLSFKNMCKLKPLLEKWLNDAE [Y33M] | -0.055
LEELEQFARTFKQRRIKLGFTQGDVGLAMGKLYGNDFSQTTISRFEALNLSFKNMCKLKPLLEQWLNDAE [K64Q] | 0.008

Looking for the measured abundance fitness of LEELEQFARTFKQRRIKLGFTQGDVGLAMGKLYGNDTSQTTISRFEALNLSFKNMCKLKPLLEKWLNDAE [F37T] , can you help? -0.175

Looking for the measured abundance fitness of LEELEQFARTFKQRRIKLGFTQGDVGLAMGKLSGNDFSQTTISRFEALNLSFKNMCKLKPLLEKWLNDAE [Y33S] , can you help? -0.041

Looking for the measured abundance fitness of LEELENFARTFKQRRIKLGFTQGDVGLAMGKLYGNDFSQTTISRFEALNLSFKNMCKLKPLLEKWLNDAE [Q6N] , can you help? -0.141

Looking for the measured abundance fitness of LEELEQFARTFKQRRIKLGFTQGDVGLAMGKLYGNDFSQTVISRFEALNLSFKNMCKLKPLLEKWLNDAE [T41V] , can you help? 0.024

Looking for the measured abundance fitness of LEELEQFARTFKQRRIKLGFTQGDVGLAMGKLYGNDFSQTTISRFEALNLSFKNMCKLKALLEKWLNDAE [P60A] , can you help? -0.124

Looking for the measured abundance fitness of LEELEQFARTFKQRRIKLGFTQGDVGDAMGKLYGNDFSQTTISRFEALNLSFKNMCKLKPLLEKWLNDAE [L27D] , can you help? -0.012

Looking for the measured abundance fitness of LEELEQFARTFKFRRIKLGFTQGDVGLAMGKLYGNDFSQTTISRFEALNLSFKNMCKLKPLLEKWLNDAE [Q13F] , can you help? -0.032

Looking for the measured abundance fitness of LEELEQFARTFKQRRIKLGFTQGDVGLAMGKLYGNDFSQTTISRFEALNLSFKNMCKLKPLLEKWSNDAE [L66S] , can you help? -0.238

Looking for the measured abundance fitness of LEELEPFARTFKQRRIKLGFTQGDVGLAMGKLYGNDFSQTTISRFEALNLSFKNMCKLKPLLEKWLNDAE [Q6P] , can you help? -0.151
